test system: intracellular proteome of ENR+CD and ENR organoids; experiment: LC-MS/MS TMT proteomics of ENR+CD versus ENR organoids; type: cell-based, C57BL/6 mice; conditions: up = enriched in ENR+CD, down = enriched in ENR; FDR<0.05 and log fold change cut-off

molecule: P11725 (protein, UniProt P11725 1-354, looked up, full-length) MLSNLRILLNNAALRKGHTSVVRHFWCGKPVQSQVQLKGRDLLTLKNFTGEEIQYMLWLSADLKFRIKQKGEYLPLLQGKSLGMIFEKRSTRTRLSTETGFALLGGHPSFLTTQDIHLGVNESLTDTARVLSSMTDAVLARVYKQSDLDTLAKEASIPIVNGLSDLYHPIQILADYLTLQEHYGSLKGLTLSWIGDGNNILHSIMMSAAKFGMHLQAATPKGYEPDPNIVKLAEQYAKENGTKLSMTNDPLEAARGGNVLITDTWISMGQEDEKKKRLQAFQGYQVTMKTAKVAASDWTFLHCLPRKPEEVDDEVFYSPRSLVFPEAENRKWTIMAVMVSLLTDYSPVLQKPKF
change: down
//
molecule: Q9D009 (protein, UniProt Q9D009 1-231, looked up, full-length) MSLPVVRLVWLGRVHYSELLALQEHWLRRLQADPRPGTLSGTKAGVLLVCEPAGPVYTGGLRGGLTPEETTRLRALGAEVRATGRGGLATFHGPGQLLCHPVLDLRLLGLRLRTHVAALEACAVRLCELRGLQGARARPPPYTGVWLGERKICAIGVRCGRHITSHGLALNCSTDLTWFEHIVPCGLVGTGVTSLSEALQRLVTVDEVMPSFLVAFKETFKCTLISEDSPS
change: down
//
molecule: Q9QXV0 (protein, UniProt Q9QXV0 1-258, looked up, full-length) MAGSPLLCGPRAGGVGILVLLLLGLLRLPPTLSARPVKEPRSLSAASAPLVETSTPLRLRRAVPRGEAAGAVQELARALAHLLEAERQERARAEAQEAEDQQARVLAQLLRAWGSPRASDPPLAPDDDPDAPAAQLARALLRARLDPAALAAQLVPAPAAAPRPRPPVYDDGPTGPDVEDAGDETPDVDPELLRYLLGRILTGSSEPEAAPAPRRLRRSVDQDLGPEVPPENVLGALLRVKRLENPSPQAPARRLLPP
change: up
